test: A549 cell viability effects, profiling panel, calcein-AM fluorescence, 48 h, basal (AID 1162); details: higher = more signal; also: test concentration not given here
Recorded z-score values for a group of compounds are listed next.
Lab note: record the figure alone, no unit after it.

Illustrative cases are given below, each with its answer.
* C=C(CCCC)/C(=C/C[C@@H](OC(=O)c1ccncc1)c1cccc(OCCO)c1)c1cc(C(=O)OC)ccc1OC | 1.25
* N#Cc1ccc(NN2C(C(O)c3ccc(I)cc3)C=CC3C(=O)N(c4ccccc4)C(=O)C32)cc1 (centres undefined) | -0.668
* COc1cc(CO)cc(I)c1O[C@H]1C=C(C(=O)NCCO)C[C@@H](NCCc2c[nH]c3ccccc23)[C@@H]1O | 1.74

For the compound CCCC[C@@H]1C[C@H]1[C@@H](NC(=O)c1ccccc1)c1ccccc1C(F)(F)F , what z-score is on record?
-0.407

----------
compounds and their reported composite z-score
system: Inhibin beta A chain (activin A); assay: INHBA (activin A) binders on microarrays, primary screen, biochemical, small-molecule microarray, 635 nm fluorescence scan (AID 1107); details: small-molecule microarray binding, higher = more signal;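 also: mouse activin A protein probed at 4.33 µg/mL on printed slides; score merges bound-protein fluorescence near 667 nm with spot signal-to-noise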
Please respond with just the number, no unit label.

Need composite z-score, item O=C(CS)NCCCCCNC(=O)[C@H]1C[C@H]2C(=O)N3CCC[C@H]3C(=O)N2[C@H]1c1ccc(O)cc1
0.594

Report composite z-score for CN1CCC(CCCO)=CC1C1CC1 (stereo unspecified) please.
0.719

# input compound: COCCOC(=O)N1C(=O)[C@@]2(c3cc(C#CCNC(N)=O)ccc31)[C@H](c1ccc(OCCO)cc1)N1[C@H](c3ccccc3)[C@H](c3ccccc3)OC(=O)[C@H]1[C@@H]2C(=O)N1CCCCCCC1 ; wanted: its composite z-score
1.69

So what does the record say about composite z-score for Cc1ccc(N2C(=O)c3ccccc3[C@@H](C(=O)NCc3ccccc3)[C@@H]2c2ccc(CO)cc2)nc1 ?
1.71

I would be grateful if you could share the reported composite z-score for O=C1OCC=C[C@H]2OC34C=CCN(Cc5ccccc5)C(=O)[C@H]3N(CCCCCO)C(=O)[C@@H]4[C@@H]12 (stereo partly specified) .
0.18

Using the record for C[N+](C)(C)CCCCNC(=O)[C@H]1C[C@H]2C(=O)NCC(=O)N2[C@H]1c1cccc(OCCO)c1 , report its composite z-score.
0.747

Which composite z-score is listed for CO[C@H]1COC(=O)CC=C[C@@H](C)COC(=O)[C@@H](C)NC(=O)CC=C[C@@H]1C ?
-0.529

So what does the record say about composite z-score for Cc1ccc(S[C@]2(C(=O)NCCN3CCOCC3)CC(=O)N(C3Cc4ccccc4C3)[C@@H]2c2ccc(CO)cc2I)cc1 ?
0.72

Quick one: composite z-score of CC(=O)NCCCC[C@@H]1NC(=O)[C@H]2C[C@@H](C(=O)NCCCCCCN(C)C)[C@@H](c3ccc(O)cc3)N2C1=O ?
0.775

Entry O=C/C=C/c1ccc(/C=C/c2ccccc2)cc1 : reported composite z-score = ?
1.47

----------
experiment: small-molecule binders of probe aNOTCH2, primary screen, biochemical, small-molecule microarray, 635/667 nm fluorescence (AID 1121); settings: higher = more signal;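 also: score merges feature fluorescence read at 667 nm with its signal to noise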
parameterMeasured: composite z-score
When you answer, write just the number.

- CC(C)CN1C(=O)[C@@]2(Cc3ccccc31)c1ccccc1C(=O)N(C1CCCCC1)[C@H]2c1ccc(CO)cc1: -0.0433
- C#CCCCON=C1C[C@@H](O)[C@@H](O)[C@@H]2[C@@H]3C(=O)N(Cc4ccc5c(c4)OCO5)C(=O)[C@@H]3CC[C@@H]12: -0.148
- COC(=O)[C@H]1[C@@H]2COc3ccccc3[C@H]2N[C@H]1C(=O)OC: -0.135

Moving on to another compound below.
Could you share which composite z-score value was measured for C=CCNC(=O)[C@@H]1[C@H]2C(=O)O[C@H](c3ccccc3)[C@H](c3ccccc3)N2[C@H](c2ccc(OCCO)cc2)[C@@]12C(=O)N(C(=O)OCCOC)c1ccc(C#CC3(O)CCCCCC3)cc12 ?
-0.0502
